Data provenance is the supplement of paper PMC13380429.

# Tested on: U2OS
# test: drug sensitivity score (DSS) for viability; higher = more toxic; extreme values may be limits of the assay
# run parameters: 72 h
Property: drug sensitivity score; scope: individual molecules
// response body must contain only the number

### Prompt Give a short answer stating reported drug sensitivity score for CC1(C)OC2(C)C(O)CC1CC2O (configuration not stated) [epomediol] .
### Response 0

### Prompt Give a short answer stating reported drug sensitivity score for O=C1C(=C(O)/C=C/c2ccc(O)cc2)C(=O)[C@@](O)([C@@H]2O[C@H](CO)[C@@H](O)[C@H](O)[C@H]2O)C(=O)[C@H]1[C@@H]1O[C@H](CO)[C@@H](O)[C@H](O)[C@H]1O .
### Response 0

* * *

# Test system: U2OS
# test: cell viability relative to DMSO; higher = less toxic
# run parameters: 72 h; 100 nM
observed property: cell viability (%)
Unit % implied. Number only.

CC(C)(Sc1ccc(CCN(CCCCC2CCCCC2)C(=O)NC2CCCCC2)cc1)C(=O)O = 105
CCCCCCCCC(=O)N[C@H](CN1CCCC1)[C@H](O)c1ccc2c(c1)OCCO2 = 105

Now turn to the next molecule.
### Prompt Give a short answer stating reported cell viability for CN1CCc2c(c3ccccc3n2Cc2ccccc2)C1 [mebhydrolin] .
### Response 98.5

* * *

# Test system: A549-ACE2 infected with SARS-CoV-2
# test: cell count relative to DMSO; higher = less toxic
# run parameters: 3 µM; 24 h
Property: cell count; scope: individual compounds
Unit % implied. Number only.

C[C@@H]1CN(CC(=O)Nc2ccc3c(c2)Cc2cccc(-c4cc(=O)cc(N5CCOCC5)o4)c2S3)C[C@H](C)O1 = 103
Cc1cc(CN)cc(C)c1NC(=O)c1ccc(-c2cc(Cl)ccc2Cl)o1 = 120
CC1(N2CCC(n3c([C@@H]4CCCNC4)nc4ccccc43)CC2)CCCCCCC1 = 115

Now turn to the next compound.
### Prompt Give a short answer stating reported cell count for COc1cccc([C@@H](C)NCCCc2ccccc2Cl)c1 .
### Response 105

* * *

# Test system: Vero E6
# test: cell viability relative to DMSO; higher = less toxic
# run parameters: 72 h; 1 nM
observed property: cell viability (%)
Unit % implied. Number only.

Example entries begin here.
CN(C)C(=O)[C@H](O)[C@H](Cc1ccccc1)NC(=O)c1cc2cc(Cl)ccc2[nH]1 = 108
C[C@]12CCC(=O)C=C1CC[C@@H]1[C@@H]2[C@@H](O)C[C@@]2(C)[C@H]1CC[C@]2(O)C(=O)COP(=O)(O)O [hydrocortisone-phosphate] = 106

### Prompt Give a short answer stating reported cell viability for Clc1cccc(C(c2ccc3[nH]cnc3c2)n2ccnc2)c1 (stereo not given) [liarozole] .
### Response 94.2

### Prompt Give a short answer stating reported cell viability for CC1(C)OC2(C)C(O)CC1CC2O (stereo not given) [epomediol] .
### Response 98.7

### Prompt Give a short answer stating reported cell viability for NS(=O)(=O)c1cccc2c1c([N+](=O)[O-])cc1nc(O)c(O)nc12 [NBQX] .
### Response 103

### Prompt Give a short answer stating reported cell viability for NC(=O)CCCCn1ccc(/N=C(\N)NCC(F)(F)F)n1 .
### Response 106

### Prompt Give a short answer stating reported cell viability for OC[C@H]1O[C@@H](n2cnc3c(NC4CCCC4)nc(Cl)nc32)[C@H](O)[C@@H]1O [2-chloro-N6-cyclopentyladenosine] .
### Response 102

### Prompt Give a short answer stating reported cell viability for Cc1cc(N2CCN([C@@H]3CN[C@H](C(=O)N4CCSC4)C3)CC2)n(-c2ccccc2)n1 [teneligliptin] .
### Response 104

### Prompt Give a short answer stating reported cell viability for O[C@@H](CN1CCNCC1)Cn1c2ccc(Br)cc2c2cc(Br)ccc21 [BAX-channel-blocker] .
### Response 101

### Prompt Give a short answer stating reported cell viability for Cc1cc(CN)cc(C)c1NC(=O)c1ccc(-c2cc(Cl)ccc2Cl)o1 .
### Response 103
